tested on: adult Tetranychus cinnabarinus; experiment: Activity assay of adult Tetranychus cinnabarinus (whole-plant spray on bean seedlings); assay type: in vivo; details: adult mites, concentration 1.25 mg/L, 48 h, parallel determination, read-out: Death rate (%)
Experimental Endpoint: pest or weed control at 1.25 µg/mL (%)
Value expressed in %; do not type the unit.

| Compound | Unit Tag | pest or weed control at 1.25 µg/mL |
| --- | --- | --- |
| CC(C)(C)C(=O)OCOC(=C(C#N)c1ccc(C(C)(C)C)cc1)c1ccccc1C(F)(F)F [Compound 8-1, reference compound] | % | 45 |

Pending compound:
Exercise: Returns the measured pest or weed control at 1.25 µg/mL for the input compound. Input: CCn1nc(C)c(Cl)c1/C(OCOC(C)=O)=C(\C#N)c1ccc(C(C)(C)C)cc1 [Compound 301]
Solution: 90

###

test system: Eggs of Tetranychus Cinnabarinus; test: Activity assay of eggs of Tetranychus cinnabarinus (spray method, ovicidal); format: in vivo; conditions: Tetranychus cinnabarinus; concentration 5 mg/L; spray; non-incubated eggs counted as dead; read-out: ovicidal activity
Experimental Endpoint: pest or weed control at 5 µg/mL

| Compound | pest or weed control at 5 µg/mL |
| --- | --- |
| CCn1nc(C)cc1/C(OC(C)OC(=O)OCCC(C)C)=C(\C#N)c1ccc(C(C)(C)C)cc1 (stereo not shown) | ≥ 90% |
| CSCC(=O)OC(C)O/C(=C(/C#N)c1ccc(C(C)(C)C)cc1)c1c(Cl)c(C)nn1C (stereo not shown) | ≥ 90% |
| Cc1cc(/C(OCOC(=O)CC(C)C)=C(\C#N)c2ccc(C(C)(C)C)cc2)n(C)n1 | ≥ 90% |
| C=CC(=O)OC(C)O/C(=C(/C#N)c1ccc(C(C)(C)C)cc1)c1c(Cl)c(C)nn1CC (stereo not shown) | ≥ 90% |
| CCn1nc(C)cc1/C(OCOC(=O)CSC)=C(\C#N)c1ccc(C(C)(C)C)cc1 | ≥ 90% |

Exercise: Returns the measured pest or weed control at 5 µg/mL for the input compound. Input: CCC(=O)OC(C)O/C(=C(/C#N)c1ccc(C(C)(C)C)cc1)c1cc(C)nn1CC (stereo not shown)
Solution: ≥ 90%

Exercise: Returns the measured pest or weed control at 5 µg/mL for the input compound. Input: CCn1nc(C)c(C)c1/C(OCOC(=O)OCC(C)C)=C(\C#N)c1ccc(C(C)(C)C)cc1
Solution: ≥ 90%

Exercise: Returns the measured pest or weed control at 5 µg/mL for the input compound. Input: CCn1nc(C)c(Cl)c1/C(OCOC(=O)c1ccccc1)=C(\C#N)c1ccc(C(C)(C)C)cc1
Solution: ≥ 90%

Exercise: Returns the measured pest or weed control at 5 µg/mL for the input compound. Input: CCn1nc(C)c(C)c1/C(OCOC(C)=O)=C(\C#N)c1ccc(C(C)(C)C)cc1
Solution: ≥ 90%

Exercise: Returns the measured pest or weed control at 5 µg/mL for the input compound. Input: CSCC(=O)OCO/C(=C(/C#N)c1ccc(C(C)(C)C)cc1)c1c(C)c(C)nn1C
Solution: ≥ 90%

Exercise: Returns the measured pest or weed control at 5 µg/mL for the input compound. Input: Cc1nn(C)c(/C(OC(C)OC(=O)CC(C)C)=C(\C#N)c2ccc(C(C)(C)C)cc2)c1C (stereo not shown)
Solution: ≥ 90%

Exercise: Returns the measured pest or weed control at 5 µg/mL for the input compound. Input: CC(C)(C)C(=O)OCOC(=C(C#N)c1ccc(C(C)(C)C)cc1)c1ccccc1C(F)(F)F [Compound 8-1, reference compound]
Solution: < 30%

Exercise: Returns the measured pest or weed control at 5 µg/mL for the input compound. Input: C=CCOC(=O)OC(C)O/C(=C(/C#N)c1ccc(C(C)(C)C)cc1)c1cc(C)nn1C (stereo not shown)
Solution: ≥ 90%

Exercise: Returns the measured pest or weed control at 5 µg/mL for the input compound. Input: CCCCC(=O)OCO/C(=C(/C#N)c1ccc(C(C)(C)C)cc1)c1cc(C)nn1CC
Solution: ≥ 90%

Exercise: Returns the measured pest or weed control at 5 µg/mL for the input compound. Input: CSCC(=O)OCO/C(=C(/C#N)c1ccc(C(C)(C)C)cc1)c1cc(C)nn1C
Solution: ≥ 90%

Exercise: Returns the measured pest or weed control at 5 µg/mL for the input compound. Input: COC(=O)COC(=O)OC(C)O/C(=C(/C#N)c1ccc(C(C)(C)C)cc1)c1cc(C)nn1C (stereo not shown)
Solution: ≥ 90%

###

tested on: Eggs of Tetranychus Cinnabarinus; test: Activity assay of eggs of Tetranychus cinnabarinus (spray method, ovicidal); assay type: in vivo; conditions: Tetranychus cinnabarinus; concentration 5 mg/L; spray; non-incubated eggs counted as dead; read-out: ovicidal activity
Experimental Endpoint: pest or weed control at 5 µg/mL

Please review the entries below; each comes with its answer.
| Molecule | Assay Value |
| --- | --- |
| CCn1nc(C)c(C)c1/C(OC(C)OC(=O)C1CCCCC1)=C(\C#N)c1ccc(C(C)(C)C)cc1 (stereo not shown) [Compound 411] | ≥ 90% |
| CCn1nc(C)cc1/C(OCOC(=O)CC(C)C)=C(\C#N)c1ccc(C(C)(C)C)cc1 [Compound 232] | ≥ 90% |
| CCn1nc(C)c(Cl)c1/C(OC(C)OC(C)=O)=C(\C#N)c1ccc(C(C)(C)C)cc1 (stereo not shown) [Compound 326] | ≥ 90% |
| Cc1cc(/C(OC(C)OC(=O)C2CC2)=C(\C#N)c2ccc(C(C)(C)C)cc2)n(C)n1 (stereo not shown) [Compound 34] | ≥ 90% |
| CCCC(=O)OCOC(=C(C#N)c1ccc(C(C)(C)C)cc1)c1ccccc1C(F)(F)F [Compound 8-4, reference compound] | < 30% |
| CCCCC(=O)OC(C)O/C(=C(/C#N)c1ccc(C(C)(C)C)cc1)c1c(Cl)c(C)nn1C (stereo not shown) [Compound 106] | ≥ 90% |

Exercise: Returns the measured pest or weed control at 5 µg/mL for the input molecule. Input: Cc1cc(/C(OCOC(=O)C(C)C)=C(\C#N)c2ccc(C(C)(C)C)cc2)n(C)n1 [Compound 4]
Solution: ≥ 90%

###

pest or weed control at 5 µg/mL for assorted compounds
tested on: Eggs of Tetranychus Cinnabarinus; test: Activity assay of eggs of Tetranychus cinnabarinus (spray method, ovicidal); type: in vivo; settings: Tetranychus cinnabarinus; concentration 5 mg/L; spray; non-incubated eggs counted as dead; read-out: ovicidal activity

Exercise: Returns the measured pest or weed control at 5 µg/mL for the input compound. Input: Cc1cc(/C(OC(C)OC(=O)OCCCl)=C(\C#N)c2ccc(C(C)(C)C)cc2)n(C)n1 (stereo not shown) [Compound 494]
Solution: ≥ 90%

Exercise: Returns the measured pest or weed control at 5 µg/mL for the input compound. Input: CCCCC(=O)OC(C)O/C(=C(/C#N)c1ccc(C(C)(C)C)cc1)c1c(C)c(C)nn1CC (stereo not shown) [Compound 406]
Solution: ≥ 90%

Exercise: Returns the measured pest or weed control at 5 µg/mL for the input compound. Input: CCn1nc(C)c(C)c1/C(OCOC(=O)COC)=C(\C#N)c1ccc(C(C)(C)C)cc1 [Compound 383]
Solution: ≥ 90%

Exercise: Returns the measured pest or weed control at 5 µg/mL for the input compound. Input: CCn1nc(C)c(C)c1/C(OCOC(=O)OC)=C(\C#N)c1ccc(C(C)(C)C)cc1 [Compound 931]
Solution: ≥ 90%

Exercise: Returns the measured pest or weed control at 5 µg/mL for the input compound. Input: CCn1nc(C)c(Cl)c1/C(OCOC(=O)COC)=C(\C#N)c1ccc(C(C)(C)C)cc1 [Compound 308]
Solution: ≥ 90%

Exercise: Returns the measured pest or weed control at 5 µg/mL for the input compound. Input: CSCC(=O)OC(C)O/C(=C(/C#N)c1ccc(C(C)(C)C)cc1)c1cc(C)nn1C (stereo not shown) [Compound 35]
Solution: ≥ 90%

Exercise: Returns the measured pest or weed control at 5 µg/mL for the input compound. Input: Cc1nn(C)c(/C(OCOC(=O)C(F)(F)F)=C(\C#N)c2ccc(C(C)(C)C)cc2)c1Cl [Compound 88]
Solution: ≥ 90%

Exercise: Returns the measured pest or weed control at 5 µg/mL for the input compound. Input: CCCCC(=O)OCO/C(=C(/C#N)c1ccc(C(C)(C)C)cc1)c1c(Cl)c(C)nn1C [Compound 81]
Solution: ≥ 90%

###

tested on: Eggs of Tetranychus Cinnabarinus; experiment: Activity assay of eggs of Tetranychus cinnabarinus (spray method, ovicidal); assay type: in vivo; conditions: Tetranychus cinnabarinus; concentration 5 mg/L; spray; non-incubated eggs counted as dead; read-out: ovicidal activity
pest or weed control at 5 µg/mL for assorted compounds

Please review the entries below; each comes with its answer.
| Compound | System Under Test | Experimental Endpoint | Assay Value |
| --- | --- | --- | --- |
| CCn1nc(C)cc1/C(OC(C)OC(=O)c1ccccc1)=C(\C#N)c1ccc(C(C)(C)C)cc1 (stereo not shown) | Eggs of Tetranychus Cinnabarinus | pest or weed control at 5 µg/mL | ≥ 90% |
| Cc1nn(C)c(/C(OCOC(=O)c2ccccc2)=C(\C#N)c2ccc(C(C)(C)C)cc2)c1C | Eggs of Tetranychus Cinnabarinus | pest or weed control at 5 µg/mL | ≥ 90% |
| Cc1cc(/C(OCOC(=O)C(F)(F)F)=C(\C#N)c2ccc(C(C)(C)C)cc2)n(C)n1 | Eggs of Tetranychus Cinnabarinus | pest or weed control at 5 µg/mL | ≥ 90% |
| CCSC(=O)OC(C)O/C(=C(/C#N)c1ccc(C(C)(C)C)cc1)c1cc(C)nn1CC (stereo not shown) | Eggs of Tetranychus Cinnabarinus | pest or weed control at 5 µg/mL | ≥ 90% |
| Cc1nn(C)c(/C(OC(C)OC(=O)C2CC2)=C(\C#N)c2ccc(C(C)(C)C)cc2)c1Cl (stereo not shown) | Eggs of Tetranychus Cinnabarinus | pest or weed control at 5 µg/mL | ≥ 90% |

Exercise: Returns the measured pest or weed control at 5 µg/mL for the input compound. Input: CCn1nc(C)c(C)c1/C(OCOC(=O)c1ccccc1)=C(\C#N)c1ccc(C(C)(C)C)cc1
Solution: ≥ 90%

Exercise: Returns the measured pest or weed control at 5 µg/mL for the input compound. Input: CCn1nc(C)c(C)c1/C(OC(C)OC(=O)C(F)(F)F)=C(\C#N)c1ccc(C(C)(C)C)cc1 (stereo not shown)
Solution: ≥ 90%
